System: R275C/beta4
Assay: modulators of BK channel variants, profiling panel, selectivity assay, cell-based, U2OS BacMam, thallium flux, beta subunits (AID 1259406);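 further: initial slope of Thallos dye fluorescence rise after thallium is added; log ratio against the mean of 0.3% DMSO vehicle wells on the same plate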
Details: at 30 µM
Activity calls are given as the source filed them.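 How the source made its calls: active means thallium flux through the channel raised or lowered by more than 3 SD from vehicle-only wells, actives on both sides; inactive means the rest.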
Listed compounds paired with reported log fold change Tl+ flux
reportedProperty: log fold change Tl+ flux

compound	recordedResult
COC(=O)Nc1nc2ccc(C(=O)c3ccc(F)cc3)cc2[nH]1	0.0237 (inactive)
O=C(NCC1CC1)c1ccccc1NS(=O)(=O)c1cccc2nonc12	0.0533 (inactive)
CC(=O)OCC(OC(C)=O)C(OC(C)=O)C(OC(C)=O)C(C#N)OC(C)=O (centres undefined)	-0.0186 (inactive)
CC(C)NCC(O)c1ccc(NS(C)(=O)=O)cc1 (centres undefined)	0.0206 (inactive)
CC(C)(C)c1cc2nc(C(F)(F)F)cc(NN=Cc3ccccc3)n2n1	-0.0304 (inactive)
O=C(C(=NN=Cc1ccc2c(c1)OCO2)c1ccccc1)c1ccccc1	-0.138 (active)
O=c1ncc(F)c[nH]1	0.00687 (inactive)
CN(NC(=O)c1ccc(Cl)s1)c1cnn(-c2cc(Cl)cc(Cl)c2)c(=O)c1Cl	-0.0313 (inactive)
O=C(NC(CO)C(O)c1ccc([N+](=O)[O-])cc1)C(Cl)Cl (centres undefined)	0.0483 (inactive)
NNC(=O)Cc1csc2nc(-c3ccccc3)nn12	0.0106 (inactive)
Cn1c(Sc2cnc(=S)[nH]c2-c2ccc(Cl)cc2)nnc1C(F)(F)F	0.0272 (inactive)
S=c1sc2c(s1)SCC1(CS2)OCCO1	-0.0357 (inactive)
O=C(NCc1ccc2c(c1)OCO2)C1CCN(C(=O)OCc2ccccc2)CC1	-0.0162 (inactive)
COc1ccc(CCN=Cc2ccccn2)cc1OC	-0.0204 (inactive)

###

Molecular target: Protein kinase 7 (PK7), Plasmodium falciparum 3D7 (PF3D7_0213400)
Assay: inhibition of Plasmodium PK7 catalytic activity – biochemical, TCAMS antimalarial set, Kinase-Glo luminescence (AID 1159587)
Conditions: recombinant PfPK7, Kinase-Glo ATP depletion luminescence
Activity calls are given as the source filed them. The rule behind the calls is not given here.
reportedProperty: outcome

compound	recordedResult
CC(C)OCCCNC(=O)c1nc(-c2cccc(C(F)(F)F)c2)sc1C(C)C	inactive
Cc1[nH]n(-c2cccc(Cl)c2)c(=O)c1-c1ccc(Cl)cc1	inactive
CC(C)(CN)c1cc(-c2ccc(Cl)c(O)c2)c(-c2ccncc2)o1	inactive
COc1cc(NC(=O)/C=C/c2cc(F)cc(F)c2F)cc(OCCN2CCCCC2)c1	inactive
CN(C)CCNCc1ccc(-c2ccc3c(Nc4ccc(Oc5ccccc5)cc4)ccnc3c2)o1	inactive
Cn1nc(-c2ccc(NC(=O)Nc3ccc4ccccc4c3)c(F)c2)c2cnc(NCCN3CCOCC3)nc21	inactive
COc1cc(NC(=O)c2nn(CCCN3CCC(N4CCCC4)CC3)cc2-c2ccc(Cl)c(Cl)c2)cc(OC)c1OC	inactive
O=C(Nc1ccc(CN2CCOCC2)cc1)c1ccc(-c2ccc(Br)cc2)o1	inactive
CC(C)(CNCc1ccc(Cl)c(Cl)c1)c1nc(-c2ccc(Cl)c(O)c2)c(-c2ccncc2)[nH]1	inactive
Clc1ccc(CNCCCCCCCNCc2ccc(Cl)c(Cl)c2)cc1Cl	inactive
Cc1[nH]c(C)c(-c2ccc(Oc3cc(Cl)cc(Cl)c3)cc2)c(=O)c1Cl	inactive
Cc1cccc2[nH]c(-c3ccc(-c4ccc(CN5CCCC(O)C5)cc4)s3)nc12 (stereo not drawn)	inactive
CCN(CC)CCCN(C(=O)Nc1cc(F)cc(F)c1)c1nc(-c2ccc(F)cc2)cs1	inactive
